Values were extracted from patent US10065990B2.

System: PANC-1 (Pac-1, human pancreatic cancer cells)
Test: MTT cancer cell growth inhibition
Type: cell-based
Conditions: Homo sapiens, PANC-1, 72 h, PANC-1 cells, MTT, 72 hours incubation; read-out: GI50 PAN
Property label: GI50 (nM)

Some compounds with recorded GI50:
C/C=C1\NC(=O)c2nc(ccc2SC)CNC(=O)C[C@@H](/C=C/CCSC=O)OC(=O)[C@H](C(C)C)NC1=O [Compound 168] = 60
C/C=C1\NC(=O)c2cc(SC)cc(n2)CNC(=O)C[C@@H](/C=C/CCSC(=O)CCCCCCC)OC(=O)[C@H](C)NC1=O [Compound 181] = 40

(I) C/C=C1\NC(=O)c2nc(ccc2SC)CNC(=O)C[C@@H](/C=C/CCSC(C)=O)OC(=O)[C@H](Cc2ccc(O)cc2)NC1=O [Compound 201]
(II) C/C=C1\NC(=O)c2nc(ccc2SCCC)CNC(=O)C[C@@H](/C=C/CCSC(=O)CCCCCCC)OC(=O)[C@H](CC)NC1=O [Compound 174]
Identify the entry with the larger GI50. Options: I and II Let me know the label of the one you choose. II
(II: 100 nM, I: 60 nM)

---

Tested on: Hela (human cervical cancer cells)
Assay: MTT cancer cell growth inhibition
Type: cell-based
Details: Homo sapiens, HeLa, 72 h, MTT, 72 hours; present invention; read-out: GI50 Hela, a
Property label: GI50 (nM)

C/C=C1\NC(=O)c2cccc(n2)CNC(=O)C[C@@H](/C=C/CCSC(=O)CCCCCCC)OC(=O)[C@H](C(C)C)NC1=O = 20
C/C=C1\NC(=O)c2cccc(n2)CNC(=O)C[C@@H](/C=C/CCSC(=O)CCCCCCC)OC(=O)[C@H](C(C)(C)C)NC1=O = 880
C/C=C1\NC(=O)c2cccc(n2)CNC(=O)C[C@@H](/C=C/CCSC(C)=O)OC(=O)[C@H](C(C)C)NC1=O = 40
C/C=C1\NC(=O)c2nc(ccc2C)CNC(=O)C[C@@H](/C=C/CCSC(=O)CCCCCCC)OC(=O)[C@H](C(C)C)NC1=O = 230
C/C=C1\NC(=O)c2cccc(n2)CNC(=O)C[C@@H](/C=C/CCSC(=O)CCCCCCC)OC(=O)[C@H](c2ccc(O)cc2)NC1=O = 55

(I) C/C=C1\NC(=O)c2cccc(n2)CNC(=O)C[C@@H](/C=C/CCSC(=O)CCCCCCC)OC(=O)[C@H](Cc2ccccc2)NC1=O
(II) C/C=C1\NC(=O)c2cccc(n2)CNC(=O)C[C@@H](/C=C/CCSC(=O)CCCCCCC)OC(=O)[C@H](CC(C)C)NC1=O
(III) C/C=C1\NC(=O)c2cccc(n2)CNC(=O)C[C@@H](/C=C/CCSC(=O)CCCCCCC)OC(=O)CNC1=O
Sort entries by GI50 from minimum to maximum value. Note for the reader: the ranking is given by listing the labels in the order requested. II, III, I
(II: 11 nM, III: 47 nM, I: 220 nM)

---

Tested on: HCC827 (human non-small cell lung cancer cells)
Test: MTT cancer cell growth inhibition
Assay type: cell-based
Conditions: Homo sapiens, HCC827, 72 h, MTT, 72 hours incubation, HCC827 cells; read-out: GI50 HCC827
Property label: GI50 (nM)

C/C=C1\NC(=O)c2cccc(n2)CNC(=O)C[C@@H](/C=C/CCS)OC(=O)[C@H](Cc2ccc(O)cc2)NC1=O = 38

(A) C/C=C1\NC(=O)c2nc(cc(SC)n2)CNC(=O)C[C@@H](/C=C/CCSC(C)=O)OC(=O)[C@H](C)NC1=O
(B) C/C=C1\NC(=O)c2nc(ccc2F)CNC(=O)C[C@@H](/C=C/CCSC(=O)CCCCC)OC(=O)[C@H](C(C)C)NC1=O
(C) C/C=C1\NC(=O)c2ccc(SC)c(n2)CNC(=O)C[C@@H](/C=C/CCS)OC(=O)[C@H](C(C)C)NC1=O
(D) C/C=C1\NC(=O)c2nc(ccc2SC)CNC(=O)C[C@@H](/C=C/CCSC(C)=O)OC(=O)[C@H](Cc2ccccc2)NC1=O
Sort entries by GI50 from minimum to maximum value. Note for the reader: the ranking is given by listing the labels in the order requested. C, A, B, D
